Target: 5-LO (Homo sapiens, UniProt P09917)
Sequence (P09917 whole entry): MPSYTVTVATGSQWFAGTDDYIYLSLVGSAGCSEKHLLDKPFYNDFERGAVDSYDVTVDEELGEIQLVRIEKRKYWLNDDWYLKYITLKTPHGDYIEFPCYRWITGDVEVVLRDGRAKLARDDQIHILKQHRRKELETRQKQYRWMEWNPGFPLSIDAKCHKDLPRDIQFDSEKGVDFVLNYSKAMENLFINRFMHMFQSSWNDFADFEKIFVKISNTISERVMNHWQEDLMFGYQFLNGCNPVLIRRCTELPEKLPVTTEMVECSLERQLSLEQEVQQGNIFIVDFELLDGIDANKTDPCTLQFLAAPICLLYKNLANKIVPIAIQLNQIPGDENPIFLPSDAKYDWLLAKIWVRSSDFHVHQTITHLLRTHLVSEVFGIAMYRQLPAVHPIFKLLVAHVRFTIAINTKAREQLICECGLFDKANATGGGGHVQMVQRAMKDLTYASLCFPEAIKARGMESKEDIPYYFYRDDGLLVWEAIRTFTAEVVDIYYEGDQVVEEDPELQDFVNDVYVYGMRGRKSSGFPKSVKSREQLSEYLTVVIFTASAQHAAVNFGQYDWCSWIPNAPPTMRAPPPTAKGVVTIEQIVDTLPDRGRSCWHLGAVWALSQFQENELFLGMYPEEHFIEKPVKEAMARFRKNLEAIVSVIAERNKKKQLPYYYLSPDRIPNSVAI
Assay: 5-LO product formation in intact PMNLs (cell-based assay)
Conditions: 1 µM ionomycin plus 20 µM AA, read-out: 5-LO cell-based assay (IC50 in µmol l^-1)
Description: To assay 5- and 15-lipoxygease (LO) product formation in intact cells, 7.5 x 10^6 freshly isolated PMNLs were finally resuspended in 1 ml of PGC buffer. After preincubation with the test compounds for 10 min at 37°C, the reaction was started by the addition of 1 µM ionomycin plus 20 µM AA. […] Formed AA metabolites were extracted and analyzed by HPLC. […] After 10 min, the incubation was terminated and 5-LO product formation was determined as described for the intact cells.
READOUT_NAME: IC50 (nM)
Give just the number in nM; leave the unit off.

CC(C)CC(=O)c1c(O)c(C(C2=C(O)c3ccccc3C2=O)c2ccccc2)c(O)c(C(C2=C(O)c3ccccc3C2=O)c2ccccc2)c1O (racemic) ... 690
CC(C)C(=O)c1c(O)c(C(C2=C(O)c3ccccc3C2=O)C(C)C)c(O)c(C(C2=C(O)c3ccccc3C2=O)C(C)C)c1O (centres unmarked) ... 6700
CC(C)C(=O)c1c(O)c(C(C2=C(O)c3ccccc3C2=O)c2ccccc2)c(O)c(C(C2=C(O)c3ccccc3C2=O)c2ccccc2)c1O (racemic) ... 620
CC(C)CC(=O)c1c(O)c(C(C2=C(O)c3ccccc3C2=O)C(C)C)c(O)c(C(C2=C(O)c3ccccc3C2=O)C(C)C)c1O (centres unmarked) ... 1040
CCCCCC(=O)c1c(O)c(C(C2=C(O)c3ccccc3C2=O)C(C)C)c(O)c(C(C2=C(O)c3ccccc3C2=O)C(C)C)c1O (centres unmarked) ... 1460

Notebook: O=C1C(C(c2ccccc2)c2c(O)c(C(=O)c3ccccc3)c(O)c(C(C3=C(O)c4ccccc4C3=O)c3ccccc3)c2O)=C(O)c2ccccc21 (racemic) , IC50 read as 840

Notebook: CCCCCC(=O)c1c(O)c(C(C2=C(O)c3ccccc3C2=O)c2ccccc2)c(O)c(C(C2=C(O)c3ccccc3C2=O)c2ccccc2)c1O (racemic) , IC50 read as 2090

Notebook: CC(C)C(C1=C(O)c2ccccc2C1=O)c1c(O)c(C(=O)c2ccccc2)c(O)c(C(C2=C(O)c3ccccc3C2=O)C(C)C)c1O (centres unmarked) , IC50 read as 3230

====

Target: mPGES-1 (Homo sapiens, UniProt O14684)
Construct: Determination of PGE2 synthase activity in microsomes of A549 cells; endogenous in cells
Sequence (O14684 whole entry): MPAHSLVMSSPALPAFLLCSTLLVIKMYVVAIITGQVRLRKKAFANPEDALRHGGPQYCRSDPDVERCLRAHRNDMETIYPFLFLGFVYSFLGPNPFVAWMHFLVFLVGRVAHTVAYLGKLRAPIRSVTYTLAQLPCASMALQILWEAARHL
Assay: Determination of PGE2 synthase activity in microsomes of A549 cells
Details: PGH2 substrate, 15 min preincubation at 4°C, read-out: mPGES-1 (IC50 in µmol l^-1)
# strict inequality: IC50 < 400 nM yields Y, everything else yields N

See these solved cases before continuing.
CC(C)C(=O)c1c(O)c(C(C2=C(O)c3ccccc3C2=O)c2ccccc2)c(O)c(C(C2=C(O)c3ccccc3C2=O)c2ccccc2)c1O (racemic) [Compound (Ie)] ... N
CCCCCC(=O)c1c(O)c(C(C2=C(O)c3ccccc3C2=O)C(C)C)c(O)c(C(C2=C(O)c3ccccc3C2=O)C(C)C)c1O (centres unmarked) [Compound (Ib)] ... Y
CC(C)CC(=O)c1c(O)c(C(C2=C(O)c3ccccc3C2=O)C(C)C)c(O)c(C(C2=C(O)c3ccccc3C2=O)C(C)C)c1O (centres unmarked) [Compound (Ic)] ... Y
O=C1C(C(c2ccccc2)c2c(O)c(C(=O)c3ccccc3)c(O)c(C(C3=C(O)c4ccccc4C3=O)c3ccccc3)c2O)=C(O)c2ccccc21 (racemic) [(Ih)] ... Y

Asked: Would you kindly verify if IC50 of CC(C)C(C1=C(O)c2ccccc2C1=O)c1c(O)c(C(=O)c2ccccc2)c(O)c(C(C2=C(O)c3ccccc3C2=O)C(C)C)c1O (centres unmarked) [Compound (Id)] is strictly less than 400 nM?
Given back: N

Asked: Would you kindly verify if IC50 of CC(C)CC(=O)c1c(O)c(C(C2=C(O)c3ccccc3C2=O)c2ccccc2)c(O)c(C(C2=C(O)c3ccccc3C2=O)c2ccccc2)c1O (racemic) [(If)] is strictly less than 400 nM?
Given back: Y

Asked: Would you kindly verify if IC50 of CC(C)C(=O)c1c(O)c(C(C2=C(O)c3ccccc3C2=O)C(C)C)c(O)c(C(C2=C(O)c3ccccc3C2=O)C(C)C)c1O (centres unmarked) [Compound (Ia)] is strictly less than 400 nM?
Given back: Y
